Biological target: T1, human Claudin 18.2 (hCLDN18.2) (human, UniProt P56856-2 1-261)
T1 construct: whole, on cells; also called CLDN18A2; claudin 18 splice variant 2
Assay: FACS, PDX-hCLDN18.2 gastric cancer tumor tissue-derived cells
Excerpt: FACS was used to detect the binding of anti-CLDN18.2 chimeric antibodies to HEK293 cells stably transfected expressing hCLDN18.2 (HEK293-hCLDN18.2) and gastric cancer tumor tissue-derived cells naturally expressing hCLDN18.2 (PDX-hCLDN18.2).
Parameter measured: Mean maximum fluorescence intensity (Top MFI)
Write down the numeric answer in MFI and omit the unit.

Study these solved cases before continuing.
ch-299B2 (antibody, V domains shown, also called chimeric antibody of clone 299B2) VH: QVQLKQSGPELVRPGASVKLSCKTSGYIFTNYWIHWVKQRSGQGLEWVVRIYPGTGNTYYNEKFTGKATLTADKSSSTAYMQLSSLKYEDSAVYFCSREGYGKGNSMDYWGQGTSVTVSS VL: DIVMTQSPSSLTVTAGEKVTMNCKSSQSLLNSGNQKNYLTWYQQKPGQPPKLLFYWASTRESGVPDRFTGSGSGTDFTLTISSVQAEDLAVYHCQNAYYYPYTFGGGTKLEMK: 16300
ch-59F9 (antibody, V domains shown, also called chimeric antibody of clone 59F9) VH: QVQLQQSGAELMKPGASVKLPCKASGYTLTGYWIEWLKQRPRHGLEWIGEILLGSGSIKYNVKFKDKATFTADTSSNTAYMQLNSLTTEDSAIYYCARKGLRGNSFDYWGQGTTLTVSS VL: DIVMTQSPSSLTVTAGEKVTMSCKSSQSLLNSGNQKSYLTWYQQKPGQPPKRLIYWASTRESGVPDRFTGSGSGTDFTLTISSVQAEDLAVYYCQNDYYYPFTFGSGTKLEIK: 18100
ch-39C8 (antibody, V domains shown, also called chimeric antibody of clone 39C8) VH: QVQLQQSGAGLVKPGASVKISCKASGYAFSSYWMIWVKQRPGKGLEWIGQIYPGDGDTNYNGKFKGKATLTADKSSSTAFMQLSSLTSEDSAVYFCTRIYYGNAFAYWGQGTLVTVSA VL: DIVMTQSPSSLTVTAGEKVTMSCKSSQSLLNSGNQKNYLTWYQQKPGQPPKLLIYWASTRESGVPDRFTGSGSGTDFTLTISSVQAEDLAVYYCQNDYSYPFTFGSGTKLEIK: 17500
ch-76D11 (antibody, V domains shown, also called chimeric antibody of clone 76D11) VH: QVQLQQSGAELMKPGASVKLSCKASGYTFTGYWIEWIKQRPGHGLEWIGEILPGSGSIKYNEKFKDKATFTADTSSNTAYMQLSSLTTEDSAIYYCARKGLRGNSFDYWGQGTTLTVSS VL: DIVMTQSPSSLTVTAGEKVTMSCKSSQSLLNSGNQKNYLTWYQQKPGQPPKRLIYWASTRESGVPDRFTGSGSGTDFTLTISSVQAEDLAVYYCQNDYYYPFTFGSGTKLEIK: 16800

Qu. What value of Mean maximum fluorescence intensity (Top MFI) has been reported for the following binder? ch-287F12 (antibody, V domains shown, also called chimeric antibody of clone 287F12) VH: QIQLVQSGPELKRPGETVRISCKASGFTFTTAGMHWVQKMAGKGLKWLGWTNTHSGEPKYAEDFKGRFAFSLDTSGSDAYLQIGNLKYEDAATYFCAKWGRGNALDYWGQGTSVTVSS VL: DIVMTQSPSSLTVTAGEKVTMTCKSSQSLLNSGNQKNYLTWYQQKPGQPPKLLIYWASTRESGVPDRFTGSGSGTDFTLTINTVQAEDLAVYYCQNTYSYPLTFGGGTKLELR
Ans. 17600

Data origin, for the record: patent US20220411492A1
